Exercise: state measured inhibition at 100 µM for each of the compounds provided.
biological target: SARS-CoV-2 Mac1 (Severe acute respiratory syndrome coronavirus 2); assay: biochemical; details: read-out: %inhibition
Counter-ions that a name gives are not always drawn.
Write down the numeric answer in % and omit the unit.

Lookup: Name the reported inhibition at 100 µM value associated with the compound `O=c1[nH]c(=O)c2ccccc2o1`
Found: 0

Lookup: Name the reported inhibition at 100 µM value associated with the compound `Nc1nnc(-c2cccc(Cl)c2Cl)c(N)n1`
Found: 12.3

Lookup: Name the reported inhibition at 100 µM value associated with the compound `COC1=C(OC)C(=O)C(CCCCCCCCCCO)=C(C)C1=O`
Found: 7.11

Lookup: Name the reported inhibition at 100 µM value associated with the compound CN1C(=O)COc2c(C(=O)NC3CN4CCC3CC4)cc(Cl)cc21 (centres unmarked) [Azasetron HCl]
Found: 0

Lookup: Name the reported inhibition at 100 µM value associated with the compound `CC(C)(CO)c1cc2cc(NC(=O)C3(c4ccc5c(c4)OC(F)(F)O5)CC3)c(F)cc2n1C[C@@H](O)CO`
Found: 16.1

----------
target: SARS-CoV-2 Mac1 (Severe acute respiratory syndrome coronavirus 2, UniProt P0DTD1); assay: biochemical; conditions: read-out: %inhibition
Structures can show the parent of a compound that is named as a salt.
Exercise: state measured inhibition at 100 µM for each of the molecules provided.
Write down the numeric answer in % and omit the unit.

Lookup: Name the reported inhibition at 100 µM value associated with the molecule CC(C)OC(=O)C(C)(C)Oc1ccc(C(=O)c2ccc(Cl)cc2)cc1 [Fenofibrate]
Found: 28.9

Lookup: Name the reported inhibition at 100 µM value associated with the molecule CCN1CCN(C(=O)N[C@@H](C(=O)N[C@@H]2C(=O)N3[C@@H]2SC(C)(C)[C@@H]3C(=O)O)c2ccccc2)C(=O)C1=O [Piperacillin Sodium]
Found: 24.2

Lookup: Name the reported inhibition at 100 µM value associated with the molecule O=C(NC[C@H]1CN(c2ccc(N3CCOCC3=O)cc2)C(=O)O1)c1ccc(Cl)s1 [Rivaroxaban]
Found: 4.28

Lookup: Name the reported inhibition at 100 µM value associated with the molecule CC/C=C(\C(=O)N[C@@H]1C(=O)N2C(C(=O)OCOC(=O)C(C)(C)C)=C(COC(N)=O)CS[C@H]12)c1csc(N)n1 [Cefcapene Pivoxil Hydrochloride]
Found: 0.547

Lookup: Name the reported inhibition at 100 µM value associated with the molecule N=C(N)NCCC[C@@H](NC(=O)[C@@H]1CCCN1C(=O)[C@@H]1CSSCCC(=O)N[C@@H](Cc2ccc(O)cc2)C(=O)N[C@@H](Cc2ccccc2)C(=O)N[C@@H](CCC(N)=O)C(=O)N[C@@H](CC(N)=O)C(=O)N1)C(=O)NCC(N)=O [Desmopressin Acetate]
Found: 8.25

Lookup: Name the reported inhibition at 100 µM value associated with the molecule COc1cc2c(cc1OC)CC(=O)N(CCCN(C)C[C@H]1Cc3cc(OC)c(OC)cc31)CC2 [Ivabradine HCl]
Found: 0

----------
target: SARS-CoV-2 Mac1 (Severe acute respiratory syndrome coronavirus 2); test: biochemical; conditions: read-out: %inhibition
Counter-ions that a name gives are not always drawn.
measurement label: inhibition at 100 µM (%)
Write down the numeric answer in % and omit the unit.

Lookup: Name the reported inhibition at 100 µM value associated with the compound NC(=O)c1ncn([C@@H]2O[C@H](CO)[C@@H](O)[C@H]2O)n1 [Ribavirin]
Found: 0.0871

Lookup: Name the reported inhibition at 100 µM value associated with the compound CCCC(CCC)C(=O)O[C@H]1C[C@H]2CC[C@@H](C1)[N+]2(C)C [Anisotropine Methylbromide]
Found: 5.8

Lookup: Name the reported inhibition at 100 µM value associated with the compound CC(=O)NC(CC(C)C)C(=O)O (stereo not shown) [Acetylleucine]
Found: 1.78

Lookup: Name the reported inhibition at 100 µM value associated with the compound C=CCc1cc(OC)c(O)c(C(=O)NCCO)c1 [Alibendol]
Found: 15.2

Lookup: Name the reported inhibition at 100 µM value associated with the compound COc1ccc(C(=O)CC(=O)c2ccc(C(C)(C)C)cc2)cc1 [Avobenzone]
Found: 26.5

Lookup: Name the reported inhibition at 100 µM value associated with the compound CCN(CC)C(=O)N1CCN(C)CC1 [Diethylcarbamazine citrate]
Found: 0

Lookup: Name the reported inhibition at 100 µM value associated with the compound CC(C)OC(=O)CCC/C=C\C[C@@H]1[C@@H](CC[C@@H](O)CCc2ccccc2)[C@H](O)C[C@@H]1O [Latanoprost]
Found: 23.8

Lookup: Name the reported inhibition at 100 µM value associated with the compound Cc1occc(=O)c1O [Maltol]
Found: 15.5

Lookup: Name the reported inhibition at 100 µM value associated with the compound COc1cc(N)c(Cl)cc1C(=O)N[C@@H]1CCN(CCCOc2ccc(F)cc2)C[C@@H]1OC [Cisapride]
Found: 1.02

Lookup: Name the reported inhibition at 100 µM value associated with the compound Nc1nc(/C(=C/CC(=O)O)C(=O)N[C@@H]2C(=O)N3C(C(=O)O)=CCS[C@H]23)cs1 [Ceftibuten dihydrate]
Found: 10.7

Lookup: Name the reported inhibition at 100 µM value associated with the compound CC(COc1ccccc1)N(CCCl)Cc1ccccc1 (stereo not shown) [Phenoxybenzamine HCl]
Found: 0

Lookup: Name the reported inhibition at 100 µM value associated with the compound O=C1[C@H](CC[C@H](O)c2ccc(F)cc2)[C@@H](c2ccc(O)cc2)N1c1ccc(F)cc1 [Ezetimibe]
Found: 5.79

Lookup: Name the reported inhibition at 100 µM value associated with the compound COc1ccc(C(=O)c2ccccc2)c(O)c1 [Oxybenzone]
Found: 0.0343

Lookup: Name the reported inhibition at 100 µM value associated with the compound O=C1c2ccccc2C(=O)C1c1ccccc1 [Phenindione]
Found: 28.8

Lookup: Name the reported inhibition at 100 µM value associated with the compound Cc1cc2c(cc1S(N)(=O)=O)S(=O)(=O)CCC2 [Meticrane]
Found: 0

Lookup: Name the reported inhibition at 100 µM value associated with the compound Nc1ncnc2nc[nH]c12 [Adenine sulfate]
Found: 4.13

Lookup: Name the reported inhibition at 100 µM value associated with the compound CCS(=O)(=O)N1CC(CC#N)(n2cc(-c3ncnc4[nH]ccc34)cn2)C1 [Baricitinib (LY3009104, INCB028050)]
Found: 28.1

Lookup: Name the reported inhibition at 100 µM value associated with the compound CCCCCCCCOc1ccccc1C(=O)Nc1ccc(C(=O)OCC[N+](C)(CC)CC)cc1 [Otilonium Bromide]
Found: 11

Lookup: Name the reported inhibition at 100 µM value associated with the compound CCOC(=O)c1ccc(O)cc1 [Ethylparaben]
Found: 2.11

Lookup: Name the reported inhibition at 100 µM value associated with the compound CCNC(=O)CCC/C=C\C[C@@H]1[C@@H](/C=C/[C@@H](O)CCc2ccccc2)[C@H](O)C[C@@H]1O [Bimatoprost]
Found: 0

Lookup: Name the reported inhibition at 100 µM value associated with the compound C[Se]CC[C@H](N)C(=O)O [L-SelenoMethionine]
Found: 0

Lookup: Name the reported inhibition at 100 µM value associated with the compound S=c1nc[nH]c2nc[nH]c12 [6-Mercaptopurine (6-MP) Monohydrate]
Found: 4.11

Lookup: Name the reported inhibition at 100 µM value associated with the compound COc1c(C)c2c(c(O)c1C/C=C(\C)CCC(=O)OCCN1CCOCC1)C(=O)OC2 [Mycophenolate Mofetil]
Found: 0

Lookup: Name the reported inhibition at 100 µM value associated with the compound Cc1ncc(COP(=O)(O)O)c(C=O)c1O [Pyridoxal phosphate]
Found: 0

Lookup: Name the reported inhibition at 100 µM value associated with the compound CCc1cc(C(N)=S)ccn1 [Ethionamide]
Found: 19.8

Lookup: Name the reported inhibition at 100 µM value associated with the compound COc1cc([C@@H]2c3cc4c(cc3[C@@H](O[C@@H]3O[C@@H]5CO[C@@H](C)O[C@H]5[C@H](O)[C@H]3O)[C@H]3COC(=O)[C@H]23)OCO4)cc(OC)c1O [Etoposide]
Found: 25.5

Lookup: Name the reported inhibition at 100 µM value associated with the compound CC(C)c1nc(CN(C)C(=O)N[C@H](C(=O)N[C@@H](Cc2ccccc2)C[C@H](O)[C@H](Cc2ccccc2)NC(=O)OCc2cncs2)C(C)C)cs1 [Ritonavir]
Found: 0

Lookup: Name the reported inhibition at 100 µM value associated with the compound CCOc1cc(N)c(Cl)cc1C(=O)NCC1CN(Cc2ccc(F)cc2)CCO1 (stereo not shown) [Mosapride]
Found: 0

Lookup: Name the reported inhibition at 100 µM value associated with the compound CCN(CC)CCOCCOC(=O)C1(c2ccccc2)CCCC1 [Pentoxyverine Citrate]
Found: 24.6

Lookup: Name the reported inhibition at 100 µM value associated with the compound CCOC(=O)[C@H]1O[C@@H]1C(=O)N[C@@H](CC(C)C)C(=O)NCCC(C)C [Aloxistatin]
Found: 0

Lookup: Name the reported inhibition at 100 µM value associated with the compound CNC[C@H](O)[C@@H](O)[C@H](O)[C@H](O)CO [Meglumine]
Found: 15.6

Lookup: Name the reported inhibition at 100 µM value associated with the compound CCOc1nc2cccc(C(=O)OC(C)OC(=O)OC3CCCCC3)c2n1Cc1ccc(-c2ccccc2-c2nn[nH]n2)cc1 (stereo not shown) [Candesartan Cilexetil]
Found: 0

Lookup: Name the reported inhibition at 100 µM value associated with the compound CCS(=O)(=O)N1CCN(c2ccc(Nc3ncc(C(N)=O)c(NC4CC4)n3)cc2)CC1 [Cerdulatinib (PRT062070, PRT2070)]
Found: 15.9

Lookup: Name the reported inhibition at 100 µM value associated with the compound C[C@@H]1COC(Nc2ccc3ncnc(Nc4ccc(OCc5nccs5)c(Cl)c4)c3c2)=N1 [Varlitinib]
Found: 0

Numbers sourced from paper doi:10.1101/2021.10.07.463234v2.
